Test system: Human Nasal Mucosal Homogenate
Assay: Inhibitory effect on degradation of peptide proteinaceous drug in human nasal mucosal homogenate
Assay type: biochemical
Design: concentration or dose not given beside the values
Conditions: degradation of somatostatin (GIF), 37° C., HPLC
Where a name gives a salt, the structure may show the parent alone. Where a SMILES comes first, the peptide text is derived from it. [ ]: non-standard residue; d: D form. The star is where a group is joined. Sta = CC(C)C[C@H](N)[C@@H](O)CC(=O)O; Isovaleryl = CC(C)CC(=O)*
Please assign a class to every record based on measured Inhibitor (%) GIF, with ranges low band (below 20%), middle band (20% to below 80%), high band (80% or more)

Input line: State the class of the molecule shown: NCCCCCC(=O)O [ε-ACA, ε-Amino caproic acid]
Output line: low band

Input line: Looking at CC(C)CC(=O)N[C@H](C(=O)N[C@H](C(=O)N[C@@H](CC(C)C)[C@@H](O)CC(=O)N[C@@H](C)C(=O)N[C@@H](CC(C)C)[C@@H](O)CC(=O)O)C(C)C)C(C)C [Pepstatin] (Isovaleryl-VV[Sta]A[Sta]-OH) , which class would you pick?
Output line: low band

Input line: Assign a category based on measured Inhibitor (%) GIF for NCc1ccc(S(N)(=O)=O)cc1 [Mafenide acetate, 4-(aminomethyl) benzenesulfamine] and give only the class name.
Output line: middle band

Input line: Kindly identify the class of NCc1ccc(C(=O)O)cc1 [p-Aminomethyl benzoic acid] .
Output line: high band

Input line: Hi, small favor: classify NC[C@H]1CC[C@H](C(=O)c2ccc(CCC(=O)O)cc2)CC1 [Rotraxate hydrochloride] by its Inhibitor (%) GIF when you get a moment.
Output line: high band

Input line: For this molecule, which bin applies? NCCc1ccc(O)c(O)c1 [Dopamine hydrochloride, 4-(2-aminoethyl)-1,2 benzenediol]
Output line: middle band

Input line: In plain terms, what class is Cc1ccc(S(=O)(=O)N[C@@H](Cc2ccccc2)C(=O)CCl)cc1 [TPCK] ?
Output line: low band

Input line: Into which category would you place CC(C)C[C@H](NC(=O)[C@@H](NC(=O)N[C@@H](Cc1ccccc1)C(=O)O)[C@@H]1CCN=C(N)N1)C(=O)N[C@H](C=O)Cc1ccccc1 [Chymostatin] ?
Output line: middle band

Input line: Textbook exercise: identify the category of the molecule given here, CCOC(=O)c1ccc(OC(=O)CCCCCNC(=N)N)cc1 [Gabexate] , according to its measured value.
Output line: middle band

----------
System: Human Nasal Mucosal Homogenate
Test: Inhibitory effect on degradation of peptide proteinaceous drug in human nasal mucosal homogenate
Assay type: biochemical
Set-up: concentration or dose not given beside the values
Conditions: degradation of somatostatin (GIF), 37° C., HPLC
Structures can show the parent of a compound that is named as a salt.
Quantity measured: Inhibitor (%) GIF
Reply numerically in %, unit not repeated.

Input line: Output Inhibitor (%) GIF of NC[C@H]1CC[C@H](C(=O)Oc2ccc(CCC(=O)O)cc2)CC1 [Cetraxate hydrochloride]
Output line: 80

Input line: Give Inhibitor (%) GIF for NC[C@H]1CC[C@H](C(=O)O)CC1 [Tranexamic acid]
Output line: 80

Input line: Tell us which Inhibitor (%) GIF value is on record for NCc1ccccc1 [Benzylamine]
Output line: 78
